# measurement-description: Biodistribution and in vivo binding specificity in PC-3 tumor-bearing BALB/c nu/nu mice
# cond: male, BALB/c nu/nu, mouse, stomach, iv, total radioactivity, male BALB/c nu/nu mice with PC-3 xenografts, 45 pmol i.v., blocked (co-injected 20 nmol non-labeled peptide), 1 h p.i.; read-out: Stomach uptake
quantity-kind: tissue uptake at 1 h (%ID/g)
Entry rule: numbers only, all in %ID/g.

Q. Item CC(C)C[C@H](NC(=O)C[C@H](O)[C@H](CC(C)C)NC(=O)[C@H](Cc1c[nH]cn1)NC(=O)CNC(=O)[C@@H](NC(=O)[C@H](C)NC(=O)[C@H](Cc1c[nH]c2ccccc12)NC(=O)[C@H](CCC(N)=O)NC(=O)[C@@H](Cc1ccccc1)NC(=O)COCCOCCNC(=O)CN1CCN(CC(=O)O)CCN(CC(=O)O)CC1)C(C)C)C(N)=O [[^18F]AlF-NOTA-P2-RM26] has what recorded tissue uptake at 1 h?
A. 0.4
